We begin with a simple list: items and their reported kon.
Target: T1, recombinant human Tau monomer, 2N4R isoform (amino acids 2-441) (human, UniProt P10636-8 2-441)
T1 construct: range 2-441; N-terminal His-tag removed with TEV protease; also called monomeric Tau
T1 sequence (P10636 other isoform, or with tags, fused parts or gaps limits assumed): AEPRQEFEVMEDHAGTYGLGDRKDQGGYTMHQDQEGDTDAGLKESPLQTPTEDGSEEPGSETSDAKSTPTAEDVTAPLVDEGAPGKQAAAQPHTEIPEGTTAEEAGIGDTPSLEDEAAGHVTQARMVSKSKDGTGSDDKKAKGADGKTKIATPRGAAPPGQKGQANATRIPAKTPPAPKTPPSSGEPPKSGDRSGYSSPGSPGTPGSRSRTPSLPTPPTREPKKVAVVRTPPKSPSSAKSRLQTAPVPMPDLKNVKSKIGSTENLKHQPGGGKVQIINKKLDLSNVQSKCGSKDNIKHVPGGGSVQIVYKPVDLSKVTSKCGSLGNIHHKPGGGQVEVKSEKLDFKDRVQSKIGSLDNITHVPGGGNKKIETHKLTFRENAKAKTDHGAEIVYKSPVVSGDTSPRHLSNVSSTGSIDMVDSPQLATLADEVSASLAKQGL
Assay: SPR, mIgG2a captured, Tau monomer analyte, 1:1 fit
Use M⁻¹ s⁻¹ as the unit, but write only the number.

>>> assayvalue("123E9-A1 (antibody, mouse IgG2a, V domains shown) VH: EVQLQQSGPELVKPGASVKMSCKASGYTFTDYYMKWVKQSHGKSLEWIGDIDPNNGGTSYNQKFKGKATLTVDKSSSTAYMQLNSLTSEDSAVYYCARSAGFGDSFSFWGLGTLVTVSA VL: DVLMTQTPLSLPVSLGDQASISCRSSQSIVHSNGNTYLEWYLQKPGQSPKLLIYKVSNRFSGVPDRFSGSGSGTDFTLKISRVEAEDLGFYYCFQGSHVPPTFGGGTKLEIK")
400000
>>> assayvalue("30G1-B2 (antibody, mouse IgG2a, V domains shown) VH: QVQLQQSGAELVRPGASVTLSCKASGYTFTDYEMYWVKQTPVHGLEWIGAIDPETGDTAYNQKFKGKATLTADKSSNTAYMELRSLTSEDSAVYYCIRQYGNWFPYWGQGTLVTVSA VL: DVVMTQTPLSLPVSLGDQASISCRSSQSLVHANGNTYLHWFLQKPGLSPKLLIYKVSNRFSGVPDRFSGGGSGTDFTLKITRLEAEDLGVYFCSQSTHVPFTFGSGTKLEIK")
400000

Shift focus to the following entry.
*Q* // lookup kon for 37D3-H9 (antibody, mouse IgG2a, V domains shown, also called 37D3-H9 mIgG2a; 37D3-H9 IgG) VH: EVQLVESGGDLAKPGGSLKLSCTASGLIFRSYGMSWVRQTPDKRLEWVATINSGGTYTYYPDSVKGRFTISRDNAKNTLYLQMSSLKSEDTAMYYCANSYSGAMDYWGQGTSVTVSS VL: DDLLTQTPLSLPVSLGDPASISCRSSQSIVHSNGNTYFEWYLQKPGQSPKLLIYKVSNRFSGVPDRFSGSGSGTDFTLKISRVEAEDLGVYYCFQGSLVPWTFGGGTKLEIK
*A* 100000
